Data provenance is BigSolDB 2.1.

# Cond: in n-propanol, 308.2 K
Measured property: solubility (mole fraction)
I'd appreciate a reply containing only the number, no unit.

# query: solubility (mole fraction) of entry Cn1c([N+](=O)[O-])cnc1N1CCN(S(C)(=O)=O)C1=O 0.000673

---

# Cond: in PEG-200, 308.2 K
Measured property: solubility (mole fraction)
I'd appreciate a reply containing only the number, no unit.

# query: solubility (mole fraction) of entry Cn1c([N+](=O)[O-])cnc1N1CCN(S(C)(=O)=O)C1=O 0.0205

---

# Cond: in DMAc, 308.2 K
Measured property: solubility (mole fraction)
I'd appreciate a reply containing only the number, no unit.

# query: solubility (mole fraction) of entry Cn1c([N+](=O)[O-])cnc1N1CCN(S(C)(=O)=O)C1=O 0.0765

---

# Cond: in methanol, 308.2 K
Measured property: solubility (mole fraction)
I'd appreciate a reply containing only the number, no unit.

# query: solubility (mole fraction) of entry Cn1c([N+](=O)[O-])cnc1N1CCN(S(C)(=O)=O)C1=O 0.000739

---

# Cond: in glycerin, 293.2 K
Measured property: solubility (mole fraction)

# query: solubility (mole fraction) of entry Cn1c([N+](=O)[O-])cnc1N1CCN(S(C)(=O)=O)C1=O 0.000743

---

# Cond: in glycerin, 303.2 K
Measured property: solubility (mole fraction)
I'd appreciate a reply containing only the number, no unit.

# query: solubility (mole fraction) of entry Cn1c([N+](=O)[O-])cnc1N1CCN(S(C)(=O)=O)C1=O 0.000984

---

# Cond: in DMF, 313.2 K
Measured property: solubility (mole fraction)

# query: solubility (mole fraction) of entry Cn1c([N+](=O)[O-])cnc1N1CCN(S(C)(=O)=O)C1=O 0.103

---

# Cond: in DMF, 303.2 K
Measured property: solubility (mole fraction)
I'd appreciate a reply containing only the number, no unit.

# query: solubility (mole fraction) of entry Cn1c([N+](=O)[O-])cnc1N1CCN(S(C)(=O)=O)C1=O 0.0683

---

# Cond: in PEG-400, 303.2 K
Measured property: solubility (mole fraction)
I'd appreciate a reply containing only the number, no unit.

# query: solubility (mole fraction) of entry Cn1c([N+](=O)[O-])cnc1N1CCN(S(C)(=O)=O)C1=O 0.0247

---

# Cond: in NMP, 303.2 K
Measured property: solubility (mole fraction)
I'd appreciate a reply containing only the number, no unit.

# query: solubility (mole fraction) of entry Cn1c([N+](=O)[O-])cnc1N1CCN(S(C)(=O)=O)C1=O 0.181

---

# Cond: in 1,4-dioxane, 303.2 K
Measured property: solubility (mole fraction)

# query: solubility (mole fraction) of entry Cn1c([N+](=O)[O-])cnc1N1CCN(S(C)(=O)=O)C1=O 0.0127

---

# Cond: in PEG-200, 313.2 K
Measured property: solubility (mole fraction)

# query: solubility (mole fraction) of entry Cn1c([N+](=O)[O-])cnc1N1CCN(S(C)(=O)=O)C1=O 0.0271

---

# Cond: in DMF, 293.2 K
Measured property: solubility (mole fraction)
I'd appreciate a reply containing only the number, no unit.

# query: solubility (mole fraction) of entry Cn1c([N+](=O)[O-])cnc1N1CCN(S(C)(=O)=O)C1=O 0.0406

---

# Cond: in isopropanol, 313.2 K
Measured property: solubility (mole fraction)
I'd appreciate a reply containing only the number, no unit.

# query: solubility (mole fraction) of entry Cn1c([N+](=O)[O-])cnc1N1CCN(S(C)(=O)=O)C1=O 0.000659

---

# Cond: in isopropanol, 308.2 K
Measured property: solubility (mole fraction)
I'd appreciate a reply containing only the number, no unit.

# query: solubility (mole fraction) of entry Cn1c([N+](=O)[O-])cnc1N1CCN(S(C)(=O)=O)C1=O 0.000527

---

# Cond: in 1,4-butanediol, 308.2 K
Measured property: solubility (mole fraction)
I'd appreciate a reply containing only the number, no unit.

# query: solubility (mole fraction) of entry Cn1c([N+](=O)[O-])cnc1N1CCN(S(C)(=O)=O)C1=O 0.0024

---

# Cond: in 1,4-dioxane, 298.2 K
Measured property: solubility (mole fraction)
I'd appreciate a reply containing only the number, no unit.

# query: solubility (mole fraction) of entry Cn1c([N+](=O)[O-])cnc1N1CCN(S(C)(=O)=O)C1=O 0.0106

---

# Cond: in DMSO, 293.2 K
Measured property: solubility (mole fraction)
I'd appreciate a reply containing only the number, no unit.

# query: solubility (mole fraction) of entry Cn1c([N+](=O)[O-])cnc1N1CCN(S(C)(=O)=O)C1=O 0.057

---

# Cond: in isopropanol, 303.2 K
Measured property: solubility (mole fraction)
I'd appreciate a reply containing only the number, no unit.

# query: solubility (mole fraction) of entry Cn1c([N+](=O)[O-])cnc1N1CCN(S(C)(=O)=O)C1=O 0.000447

---

# Cond: in 1,4-butanediol, 293.2 K
Measured property: solubility (mole fraction)
I'd appreciate a reply containing only the number, no unit.

# query: solubility (mole fraction) of entry Cn1c([N+](=O)[O-])cnc1N1CCN(S(C)(=O)=O)C1=O 0.000939

---

# Cond: in methanol, 303.2 K
Measured property: solubility (mole fraction)
I'd appreciate a reply containing only the number, no unit.

# query: solubility (mole fraction) of entry Cn1c([N+](=O)[O-])cnc1N1CCN(S(C)(=O)=O)C1=O 0.000624

---

# Cond: in PEG-600, 303.2 K
Measured property: solubility (mole fraction)
I'd appreciate a reply containing only the number, no unit.

# query: solubility (mole fraction) of entry Cn1c([N+](=O)[O-])cnc1N1CCN(S(C)(=O)=O)C1=O 0.0302

---

# Cond: in PEG-600, 293.2 K
Measured property: solubility (mole fraction)

# query: solubility (mole fraction) of entry Cn1c([N+](=O)[O-])cnc1N1CCN(S(C)(=O)=O)C1=O 0.015

---

# Cond: in formamide, 293.2 K
Measured property: solubility (mole fraction)
I'd appreciate a reply containing only the number, no unit.

# query: solubility (mole fraction) of entry Cn1c([N+](=O)[O-])cnc1N1CCN(S(C)(=O)=O)C1=O 0.0476

---

# Cond: in formamide, 303.2 K
Measured property: solubility (mole fraction)
I'd appreciate a reply containing only the number, no unit.

# query: solubility (mole fraction) of entry Cn1c([N+](=O)[O-])cnc1N1CCN(S(C)(=O)=O)C1=O 0.0771

---

# Cond: in ethanol, 298.2 K
Measured property: solubility (mole fraction)

# query: solubility (mole fraction) of entry Cn1c([N+](=O)[O-])cnc1N1CCN(S(C)(=O)=O)C1=O 0.00048

---

# Cond: in DMF, 298.2 K
Measured property: solubility (mole fraction)
I'd appreciate a reply containing only the number, no unit.

# query: solubility (mole fraction) of entry Cn1c([N+](=O)[O-])cnc1N1CCN(S(C)(=O)=O)C1=O 0.0542

---

# Cond: in NMP, 313.2 K
Measured property: solubility (mole fraction)
I'd appreciate a reply containing only the number, no unit.

# query: solubility (mole fraction) of entry Cn1c([N+](=O)[O-])cnc1N1CCN(S(C)(=O)=O)C1=O 0.366

---

# Cond: in DMAc, 298.2 K
Measured property: solubility (mole fraction)
I'd appreciate a reply containing only the number, no unit.

# query: solubility (mole fraction) of entry Cn1c([N+](=O)[O-])cnc1N1CCN(S(C)(=O)=O)C1=O 0.0481

---

# Cond: in DMAc, 313.2 K
Measured property: solubility (mole fraction)
I'd appreciate a reply containing only the number, no unit.

# query: solubility (mole fraction) of entry Cn1c([N+](=O)[O-])cnc1N1CCN(S(C)(=O)=O)C1=O 0.0963

---

# Cond: in methanol, 293.2 K
Measured property: solubility (mole fraction)
I'd appreciate a reply containing only the number, no unit.

# query: solubility (mole fraction) of entry Cn1c([N+](=O)[O-])cnc1N1CCN(S(C)(=O)=O)C1=O 0.000481

---

# Cond: in 1,4-dioxane, 293.2 K
Measured property: solubility (mole fraction)
I'd appreciate a reply containing only the number, no unit.

# query: solubility (mole fraction) of entry Cn1c([N+](=O)[O-])cnc1N1CCN(S(C)(=O)=O)C1=O 0.00814

---

# Cond: in 1,4-butanediol, 313.2 K
Measured property: solubility (mole fraction)
I'd appreciate a reply containing only the number, no unit.

# query: solubility (mole fraction) of entry Cn1c([N+](=O)[O-])cnc1N1CCN(S(C)(=O)=O)C1=O 0.00315

---

# Cond: in n-propanol, 293.2 K
Measured property: solubility (mole fraction)
I'd appreciate a reply containing only the number, no unit.

# query: solubility (mole fraction) of entry Cn1c([N+](=O)[O-])cnc1N1CCN(S(C)(=O)=O)C1=O 0.000356

---

# Cond: in 1,4-butanediol, 303.2 K
Measured property: solubility (mole fraction)
I'd appreciate a reply containing only the number, no unit.

# query: solubility (mole fraction) of entry Cn1c([N+](=O)[O-])cnc1N1CCN(S(C)(=O)=O)C1=O 0.00176
